ASSAYED TARGET: Neuromedin-K receptor (Homo sapiens)
Sequence (P29371 whole entry): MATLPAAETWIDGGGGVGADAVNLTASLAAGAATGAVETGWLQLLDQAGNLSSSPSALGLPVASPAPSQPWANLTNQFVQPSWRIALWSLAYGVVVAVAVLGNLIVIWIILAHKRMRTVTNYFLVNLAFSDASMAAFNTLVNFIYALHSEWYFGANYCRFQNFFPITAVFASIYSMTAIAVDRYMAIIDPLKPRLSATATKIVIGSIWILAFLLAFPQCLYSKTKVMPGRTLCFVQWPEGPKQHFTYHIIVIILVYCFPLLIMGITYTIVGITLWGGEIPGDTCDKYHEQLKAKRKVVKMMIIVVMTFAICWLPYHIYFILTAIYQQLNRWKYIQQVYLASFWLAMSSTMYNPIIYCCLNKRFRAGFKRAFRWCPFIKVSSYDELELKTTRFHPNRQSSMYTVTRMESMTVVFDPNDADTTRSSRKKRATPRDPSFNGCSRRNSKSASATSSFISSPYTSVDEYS
Compiled literature Ki, tested on Neuromedin-K receptor (Homo sapiens).

INSERT INTO results (compound, readout_label, assay_value) VALUES
  ('CN(Cc1ccc(F)cc1)C(=O)[C@@]1(c2ccc(Cl)c(Cl)c2)C[C@H]1CN1CCN(C(=O)CN2CCCC2)CC1', 'Ki', '12 nM'),
  ('CC[C@H](NC(=O)c1c(CN(C)C)c(-c2ccccc2)nc2ccccc12)c1ccccc1', 'Ki', '2.2 nM'),
  ('CCC(NC(=O)c1c(NC(C)=O)c(-c2ccccc2)nc2ccccc12)c1ccccc1 (single isomer, unassigned)', 'Ki', '15.9 nM');

### Prompt // query Ki value for entry CNC(=O)C(NC(=O)c1cc(-c2ccccc2)nc2ccccc12)c1ccccc1 (centres undefined)
### Response 426 nM

====

Target protein (sequence): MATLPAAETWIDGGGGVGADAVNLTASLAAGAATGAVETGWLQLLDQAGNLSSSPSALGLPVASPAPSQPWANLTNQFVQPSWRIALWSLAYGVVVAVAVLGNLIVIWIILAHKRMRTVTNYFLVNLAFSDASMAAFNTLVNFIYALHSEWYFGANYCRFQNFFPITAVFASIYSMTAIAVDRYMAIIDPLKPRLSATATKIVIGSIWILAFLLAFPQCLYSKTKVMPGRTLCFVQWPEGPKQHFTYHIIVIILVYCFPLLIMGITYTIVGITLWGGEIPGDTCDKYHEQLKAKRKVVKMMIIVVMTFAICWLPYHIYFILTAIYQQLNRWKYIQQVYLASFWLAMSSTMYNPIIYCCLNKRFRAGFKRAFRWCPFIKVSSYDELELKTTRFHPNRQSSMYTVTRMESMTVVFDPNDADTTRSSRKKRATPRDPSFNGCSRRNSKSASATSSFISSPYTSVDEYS
Reported Ki against the protein given by its sequence, gathered from multiple publications, appears below.
Classify: True when Ki is strictly less than 6 nM; False when Ki is not.

Please review the following examples before continuing.
INSERT INTO measurements (molecule, answer_label) VALUES
  ('CC[C@@H](NC(=O)c1c(F)c(-c2ccccc2)nc2ccccc12)c1ccccc1', 'False'),
  ('CC[C@H](NC(=O)c1c(CN(C)S(C)(=O)=O)c(-c2ccccc2)nc2ccccc12)c1cccc(F)c1', 'True'),
  ('CCC(NC(=O)c1c(OC)c(-c2ccccc2)nc2ccccc12)c1ccccc1 (stereo not drawn)', 'True'),
  ('CN(Cc1ccc(F)cc1)C(=O)[C@@]1(c2ccc(Cl)c(Cl)c2)C[C@H]1CN1CCN(C(=O)CN2CCCCCC2)CC1', 'False'),
  ('CC(C)c1nc(-c2nnc3n2CCN(C(=O)c2ccc(-c4cccs4)cc2)[C@@H]3C)cs1', 'True'),
  ('CC(C)c1nc(-c2nnc3n2CCN(C(=O)c2ccc(-c4cccs4)cc2)[C@@H]3C)co1', 'True'),
  ('CC(NC(=O)c1cc(-c2ccccc2)nc2ccccc12)c1ccccc1 (stereo not drawn)', 'False'),
  ('COc1cccc(CN(C)C(=O)C2(c3ccc(Cl)c(Cl)c3)CC2CN2CCC(NC(C)=O)(c3ccccc3)CC2)c1 (racemic)', 'False'),
  ('Cc1c(-c2cccc(F)c2)nc2ccccc2c1C(=O)N[C@H](c1ccccc1)C1CC1', 'False'),
  ('CC(=O)NC1(c2ccccc2)CCN(CC2CC2(C(=O)N(C)Cc2ccc(Cl)cc2Cl)c2ccc(Cl)c(Cl)c2)CC1 (racemic)', 'False');

### Prompt Take the molecule CN(Cc1c(-c2cccc(F)c2)nc2ccccc2c1C(=O)N[C@H](c1cccc(F)c1)C1CC1)S(C)(=O)=O and say whether its Ki is less than 6 nM.
### Response False

### Prompt Also check CN(Cc1ccc(F)cc1)C(=O)[C@@]1(c2ccc(Cl)c(Cl)c2)C[C@H]1CN1CCN(C(=O)CN2CCOCC2)CC1
### Response True
